tested on: 786-0; test: NCI tumour cell line growth inhibition, 48 h
Calls of active or inactive are those of the source. Rule as the data show it: active = GI50 up to about 1.1 µM and inactive = higher.
Write down one outcome, taken from yes (1) for active, no (0) for inactive

compound	experimental system	cat
Nc1ccc(C(=O)N/C(=C\c2ccc3c(c2)OCO3)c2nc3c(O)nc(S)nc3[nH]2)cc1	786-0	no (0)
CCOP(C)(=O)/C(Cc1ccc(OC)c(OC)c1)=N\O (centres undefined)	786-0	no (0)
CN(C)c1ccc(/C=C(/NC(=O)c2ccccc2)c2nc3cc(Cl)ccc3[nH]2)cc1	786-0	no (0)
COC(=O)[C@@H]1C[C@]2(Br)c3ccccc3N(S(=O)(=O)c3ccccc3)[C@@H]2N1C(=O)OC	786-0	no (0)
COc1ccc2c(c1)CCCN1CCc3ccccc3C21 (centres undefined)	786-0	no (0)
COc1ccc(C2C=C(c3ccc(C)cc3)N(c3ccc(OC)cc3[N+](=O)[O-])C3C(=O)OC(=O)C23)c(OC)c1 (centres undefined)	786-0	no (0)
COC1=C(N)C(=O)c2nc(C)ccc2C1=O	786-0	no (0)
COc1ccc(S(=O)(=O)NNS(C)(=O)=O)cc1OC	786-0	no (0)
COc1ccc2nc3c([N+](=O)[O-])ccc4c3c(c2c1)N=CN4CCCN(C)C	786-0	yes (1)
O=C(O)COc1ccc(C(=O)/C(SS/C(C(=O)c2ccc(OCC(=O)O)c(Cl)c2Cl)=C2\C=C(c3ccc(Br)cc3)SS2)=C2/C=C(c3ccc(Br)cc3)SS2)c(Cl)c1Cl	786-0	no (0)

Consider now this further compound.
## Task Identify the outcome logged in this assay for the compound shown: C#CCOC(=O)C(N)CS (centres undefined)
## Result no (0)

====

GI50 listing for selected compounds.
system: LOX IMVI; experiment: NCI tumour cell line growth inhibition, 48 h
Activity calls are given as the source filed them. No stated cut-off is given here; in the data, active = GI50 up to about 1.1 µM and inactive = higher.

compound	result
CC(=O)OCC1OC(NC(=O)N(CCCl)N=O)C(OC(C)=O)C(OC(C)=O)C1OC(C)=O (stereo not given)	44.8 µM (inactive)
Cc1cc(=O)n(-c2c(C)cccc2Cl)c(/C=C(\O)c2ccncc2)n1	> 100 µM (inactive)
C[C@]12CC[C@@H]3c4ccc(OCC(=O)O)cc4CC[C@H]3[C@@H]1CCC2=O	> 100 µM (inactive)
COc1ccc(C2COc3c(ccc(O)c3C)C2)cc1OC (stereo not given)	12.9 µM (inactive)

## Task Entry under review: CCOC(=O)C1=NNC(C(=O)c2ccccc2)C1c1ccccc1 (stereo not given) . Reported GI50?
## Result 2.32 µM (inactive)

====

system: XF498; assay: NCI tumour cell line growth inhibition, 48 h
The source made the active and inactive calls. Cut-off read from the data, not from the text of the source: active = GI50 up to about 1.1 µM and inactive = higher.
GI50 listing for selected compounds.

Use the examples below as a reference point.
compound	endpoint label	result
CC(=O)N1CC2Nc3ccccc3C2CC1CO (centres undefined)	GI50	> 100 µM (inactive)
CC(=O)C1CC2(c3ccccc3)C(=O)c3ccccc3N2O1 (centres undefined)	GI50	> 100 µM (inactive)
OC(c1ccccc1Br)(c1ccccc1Br)C(F)(F)F	GI50	23.1 µM (inactive)

## Task Entry under review: CC(=O)N(C(C)=O)c1c(N)n(C)c(=O)[nH]c1=O . Reported GI50?
## Result > 100 µM (inactive)

====

test system: HOP-62; assay: NCI tumour cell line growth inhibition, 48 h
Active and inactive are the calls of the source. No stated cut-off is given here; in the data, active = GI50 up to about 1.1 µM and inactive = higher.
endpoint label: GI50

compound	GI50
COc1cc([C@@H]2Oc3cc4oc(-c5ccccc5)cc(=O)c4c(O)c3O[C@H]2OC)ccc1O	13.2 µM (inactive)
O=C(O)c1ccc(Nc2nc3nn(Cc4ccccc4)cc3c(=O)s2)cc1	> 100 µM (inactive)
CC(=O)O[C@H]1[C@@H](OC2CCCC2(c2ccccc2)c2ccccc2)O[N+]([O-])=C[C@@H]1c1ccccc1 (some centres undefined)	16.6 µM (inactive)
CN(C)c1ccc(/C=C(\C#N)C(N)=C(C#N)C#N)cc1	> 100 µM (inactive)
COc1cc2c(cc1OCCCC(=O)Nc1cc(C(=O)Nc3cc(C(=O)Nc4cc(C(=O)NCCCN(C)C)n(C)n4)n(C)c3)n(C)c1)N=CC1CCCN1C2=O (centres undefined)	25.8 µM (inactive)

## Task Record lookup: for HOP-62, what GI50 belongs to NNc1nnc(-c2ccccc2)nc1Cc1ccccc1 ?
## Result 2.69 µM (inactive)

## Task Also CCC1(c2ccc(OC)c(OC)c2)CCN2C(=O)C(O)CC21 (centres undefined) ?
## Result > 100 µM (inactive)

## Task Also CC(=O)OC12CC[N+]3(C)CCCCC3C1=Nc1ccccc12 (centres undefined) ?
## Result > 100 µM (inactive)

## Task Also COc1ccc(-c2oc3cc(OC(C)=O)cc(OC(C)=O)c3c(=O)c2OC)cc1 ?
## Result 18.1 µM (inactive)

Where do the numbers come from? From ChEMBL document CHEMBL1201862.
